Test system: VRE 1002
Assay type: cell-based, Enterococcus faecalis
Bridge positions count the residues as written; N and C are the ends. Square brackets hold non-standard residues; d marks the D form. Peptide text beside a SMILES is read from it. ξ: configuration not given here. dNMeF = CN[C@H](Cc1ccccc1)C(=O)O; Ile(3ξ) = CCC(C)[C@H](N)C(=O)O
Reported Metric: MIC (µg/mL)
Report only the number, with the unit µg/mL understood.

[ask] What value of MIC has been recorded for this entry: CC[C@@H](C)[C@@H](NC(=O)[C@@H](CCCNC(=N)N)NC(=O)[C@H](CCCNC(=N)N)NC(=O)[C@@H](NC(=O)[C@@H](Cc1ccccc1)NC)[C@@H](C)CC)C(=O)N[C@H](C(=O)N[C@@H](CO)C(=O)N[C@H]1C(=O)N[C@@H](CCCNC(=N)N)C(=O)N[C@@H](CC(C)C)C(=O)N[C@@H]([C@@H](C)CC)C(=O)O[C@H]1C)[C@@H](C)CC [Compound 31, Arg3-D-Arg4-Arg9-Leu10-teixobactin] (H-[dNMeF]IR[dR][dI]IS[dT]RLI; ester 8-C)
[reply] 8

[ask] What value of MIC has been recorded for this entry: CC[C@@H](C)[C@@H](NC(=O)[C@@H](CCC(N)=O)NC(=O)[C@H](CCCNC(=N)N)NC(=O)[C@@H](NC(=O)[C@@H](Cc1ccccc1)NC)[C@@H](C)CC)C(=O)N[C@H](C(=O)N[C@@H](CO)C(=O)N[C@H]1C(=O)N[C@@H](CCCNC(=N)N)C(=O)N[C@@H](CC(C)C)C(=O)N[C@@H]([C@@H](C)CC)C(=O)O[C@H]1C)[C@@H](C)CC [Compound 29, Arg3-Arg9-Leu10-teixobactin] (H-[dNMeF]IR[dQ][dI]IS[dT]RLI; ester 8-C)
[reply] 1

[ask] What value of MIC has been recorded for this entry: CC[C@@H](C)[C@@H](NC(=O)[C@@H](CCCNC(=N)N)NC(=O)[C@H](CCCNC(=N)N)NC(=O)[C@@H](NC(=O)[C@@H](Cc1ccccc1)NC)[C@@H](C)CC)C(=O)N[C@H](C(=O)N[C@@H](CO)C(=O)N[C@H]1C(=O)N[C@@H](C)C(=O)N[C@@H](CC(C)C)C(=O)N[C@@H]([C@@H](C)CC)C(=O)O[C@H]1C)[C@@H](C)CC [Compound 28, Arg3-D-Arg4-Leu10-teixobactin] (H-[dNMeF]IR[dR][dI]IS[dT]ALI; ester 8-C)
[reply] 1

[ask] What value of MIC has been recorded for this entry: CCC(C)[C@@H]1NC(=O)[C@H](CCCNC(=N)N)NC(=O)[C@H](NC(=O)[C@H](CO)NC(=O)[C@@H](NC(=O)[C@H](NC(=O)[C@@H](CCC(N)=O)NC(=O)[C@H](CO)NC(=O)[C@@H](NC(=O)[C@@H](Cc2ccccc2)NC)[C@@H](C)CC)[C@H](C)CC)[C@@H](C)CC)[C@H](C)OC(=O)[C@H]([C@@H](C)CC)NC1=O (some centres unmarked) [Compound 34, Arg9-Ile10-teixobactin] (H-[dNMeF]IS[dQ][dI]IS[dT]R[Ile(3ξ)]I; ester 8-C)
[reply] 1

[ask] What value of MIC has been recorded for this entry: CC[C@@H](C)[C@@H](NC(=O)[C@@H](CCCNC(=N)N)NC(=O)[C@H](CO)NC(=O)[C@@H](NC(=O)[C@@H](Cc1ccccc1)NC)[C@@H](C)CC)C(=O)N[C@H](C(=O)N[C@@H](CO)C(=O)N[C@H]1C(=O)N[C@@H](CCCNC(=N)N)C(=O)N[C@@H](CC(C)C)C(=O)N[C@@H]([C@@H](C)CC)C(=O)O[C@H]1C)[C@@H](C)CC [Compound 30, D-Arg4-Arg9-Leu10-teixobactin] (H-[dNMeF]IS[dR][dI]IS[dT]RLI; ester 8-C)
[reply] 1
